// values below are IC50; system is Signal transducer and activator of transcription 3 (Mus musculus, UniProt P42227)
Sequence (P42227 whole entry): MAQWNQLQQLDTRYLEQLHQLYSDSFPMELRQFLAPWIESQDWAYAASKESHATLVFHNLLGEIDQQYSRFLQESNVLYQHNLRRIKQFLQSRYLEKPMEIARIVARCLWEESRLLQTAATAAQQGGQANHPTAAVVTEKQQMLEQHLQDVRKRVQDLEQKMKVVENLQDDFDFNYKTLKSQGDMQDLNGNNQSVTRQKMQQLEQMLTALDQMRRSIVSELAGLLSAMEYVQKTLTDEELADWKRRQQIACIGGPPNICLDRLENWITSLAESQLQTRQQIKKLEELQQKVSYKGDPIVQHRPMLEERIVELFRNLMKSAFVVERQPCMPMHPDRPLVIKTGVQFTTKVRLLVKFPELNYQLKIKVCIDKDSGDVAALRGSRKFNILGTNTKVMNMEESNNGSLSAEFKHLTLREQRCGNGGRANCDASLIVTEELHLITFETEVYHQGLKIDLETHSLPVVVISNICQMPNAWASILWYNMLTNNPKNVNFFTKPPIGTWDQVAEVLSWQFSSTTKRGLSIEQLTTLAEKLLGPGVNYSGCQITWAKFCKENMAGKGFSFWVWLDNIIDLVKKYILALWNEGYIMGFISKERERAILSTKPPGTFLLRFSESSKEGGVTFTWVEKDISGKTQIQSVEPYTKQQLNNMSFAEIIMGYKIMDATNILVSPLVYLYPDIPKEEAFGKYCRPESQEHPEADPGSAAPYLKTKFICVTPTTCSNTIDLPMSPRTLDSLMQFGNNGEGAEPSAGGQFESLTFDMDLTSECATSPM
Square brackets hold non-standard residues; d marks the D form. Peptide text beside a SMILES is read from it. ξ: configuration not given here. Phe(4-COOH) = N[C@@H](Cc1ccc(C(=O)O)cc1)C(=O)O; pY = N[C@@H](Cc1ccc(OP(=O)(O)O)cc1)C(=O)O; Thr(3ξ) = CC(O)[C@H](N)C(=O)O

{"columns": ["Compound", "Test Target", "Readout Relation", "IC50 / µM"],
 "data": [
  ["CC(=O)N[C@@H](Cc1ccc(CP(=O)(O)O)cc1)C(=O)N[C@@H](CC(C)C)C(=O)N1CCC[C@H]1C(=O)N[C@@H](CCC(N)=O)C(=O)N[C@H](C(=O)N[C@H](C(N)=O)C(C)C)C(C)O (stereo not given in full)", "Signal transducer and activator of transcription 3 (Mus musculus, UniProt P42227)", "=", 8],
  ["CC(=O)N[C@@H](Cc1ccc(OP(=O)(O)O)cc1)C(=O)N[C@@H](CC(C)C)C(=O)N1CCC[C@H]1C(=O)N[C@@H](CCC(=O)O)C(=O)N[C@H](C(=O)N[C@H](C(N)=O)C(C)C)C(C)O (stereo not given in full) (Ac-[pY]LPE[Thr(3ξ)]V-NH2)", "Signal transducer and activator of transcription 3 (Mus musculus, UniProt P42227)", ">", 6],
  ["CC(=O)N[C@@H](Cc1ccc(C(=O)O)cc1)C(=O)N[C@@H](CC(C)C)C(=O)N1CCC[C@H]1C(=O)N[C@@H](CCC(N)=O)C(=O)N[C@H](C(=O)N[C@H](C(N)=O)C(C)C)C(C)O (stereo not given in full) (Ac-[Phe(4-COOH)]LPQ[Thr(3ξ)]V-NH2)", "Signal transducer and activator of transcription 3 (Mus musculus, UniProt P42227)", ">", 6],
  ["CC(=O)N[C@@H](Cc1ccc(OP(=O)(O)O)cc1)C(=O)N[C@@H](CO)C(=O)N[C@H](C(=O)N[C@H](C(=O)N[C@H](C(=O)N[C@@H](Cc1cnc[nH]1)C(N)=O)C(C)C)C(C)C)C(C)O (stereo not given in full) [Y(p)STVVH] (Ac-[pY]S[Thr(3ξ)]VVH-NH2)", "Signal transducer and activator of transcription 3 (Mus musculus, UniProt P42227)", ">", 150],
  ["CC(=O)N[C@@H](Cc1ccc(OP(=O)(O)O)cc1)C(=O)N[C@@H](CC(C)C)C(=O)N[C@@H](CCCN=C(N)N)C(=O)N[C@@H](CS)C(=O)N[C@@H](CC(=O)O)C(=O)N[C@@H](CO)C(N)=O (Ac-[pY]LRCDS-NH2)", "Signal transducer and activator of transcription 3 (Mus musculus, UniProt P42227)", "=", 80]
]}

* * *

target: Signal transducer and activator of transcription 3 (Mus musculus, UniProt P42227)
Square brackets hold non-standard residues; d marks the D form. Peptide text beside a SMILES is read from it. ξ: configuration not given here. pY = N[C@@H](Cc1ccc(OP(=O)(O)O)cc1)C(=O)O; Thr(3ξ) = CC(O)[C@H](N)C(=O)O
Each entry below carries its recorded IC50.
Experimental Readout: IC50 (nM)

{"columns": ["Compound", "Unit Of Measure", "Readout Relation", "Reported Value"],
 "data": [
  ["CC(=O)N[C@@H](Cc1ccc(OP(=O)(O)O)cc1)C(=O)N[C@@H](CCC(N)=O)C(=O)N[C@@H](CCCCN)C(=O)N[C@@H](CCC(N)=O)C(=O)N[C@H](C(=O)N[C@@H](CCCN=C(N)N)C(N)=O)C(C)O (some centres undefined) [Y(p)QKQTR] (Ac-[pY]QKQ[Thr(3ξ)]R-NH2)", "nM", "=", 8000],
  ["CC(=O)N[C@@H](Cc1ccc(OP(=O)(O)O)cc1)C(=O)N[C@@H](CO)C(=O)N[C@@H](CC(=O)O)C(=O)NCC(=O)N[C@@H](CC(N)=O)C(=O)N[C@@H](Cc1ccccc1)C(N)=O [Y(p)SDGNF] (Ac-[pY]SDGNF-NH2)", "nM", ">", 150000],
  ["CC(=O)N[C@@H](Cc1ccc(OP(=O)(O)O)cc1)C(=O)N[C@@H](CC(C)C)C(=O)N1CCC[C@H]1C(=O)N[C@@H](CCC(N)=O)C(=O)N[C@H](C(=O)N[C@H](C(N)=O)C(C)C)C(C)O (some centres undefined)", "nM", "=", 150],
  ["CC(=O)N[C@@H](Cc1ccc(OP(=O)(O)O)cc1)C(=O)N[C@@H](CC(C)C)C(=O)N1CCC[C@H]1C(=O)N[C@@H](CCC(N)=O)C(N)=O (Ac-[pY]LPQ-NH2)", "nM", "=", 1000]
]}

* * *

pIC50: −log10 of the molar value. Square brackets hold non-standard residues; d marks the D form. Peptide text beside a SMILES is read from it. ξ: configuration not given here. Phe(4-tetrazol-5-yl) = N[C@@H](Cc1ccc(-c2nnn[nH]2)cc1)C(=O)O; pY = N[C@@H](Cc1ccc(OP(=O)(O)O)cc1)C(=O)O; Thr(3ξ) = CC(O)[C@H](N)C(=O)O
// values below are pIC50; system is UniProtKB P42227

{"columns": ["Molecule", "Test Target", "Readout Relation", "pIC50"],
 "data": [
  ["CC(=O)N[C@@H](Cc1ccc(OP(=O)(O)O)cc1)C(=O)N[C@@H](CC(C)C)C(=O)N1CCC[C@H]1C(N)=O [Y(p)LP] (Ac-[pY]-Leu-Pro-NH2)", "UniProtKB P42227", "<", 5.22],
  ["CC(=O)N[C@@H](Cc1ccc(OP(=O)(O)O)cc1)C(=O)N[C@@H](CC(C)C)C(=O)N1CCC[C@H]1C(=O)N[C@@H](CC(N)=O)C(=O)N[C@H](C(=O)N[C@H](C(N)=O)C(C)C)C(C)O (some centres undefined) (Ac-[pY]LPN[Thr(3ξ)]V-NH2)", "UniProtKB P42227", "=", 5.70],
  ["CC(=O)N[C@@H](Cc1ccc(-c2nnn[nH]2)cc1)C(=O)N[C@@H](CC(C)C)C(=O)N1CCC[C@H]1C(=O)N[C@@H](CCC(N)=O)C(=O)N[C@H](C(=O)N[C@H](C(N)=O)C(C)C)C(C)O (some centres undefined) (Ac-[Phe(4-tetrazol-5-yl)]LPQ[Thr(3ξ)]V-NH2)", "UniProtKB P42227", "<", 5.22],
  ["CC(=O)N[C@@H](Cc1ccc(OP(=O)(O)O)cc1)C(=O)N[C@@H](C)C(=O)N1CCC[C@H]1C(=O)N[C@@H](CCC(N)=O)C(=O)N[C@H](C(=O)N[C@H](C(N)=O)C(C)C)C(C)O (some centres undefined) [Y(p)APQTV] (Ac-[pY]APQ[Thr(3ξ)]V-NH2)", "UniProtKB P42227", "=", 5.80]
]}

* * *

Square brackets hold non-standard residues; d marks the D form. Peptide text beside a SMILES is read from it. ξ: configuration not given here. pY = N[C@@H](Cc1ccc(OP(=O)(O)O)cc1)C(=O)O; Thr(3ξ) = CC(O)[C@H](N)C(=O)O
// values below are IC50; system is Signal transducer and activator of transcription 3 (Mus musculus, UniProt P42227)

{"columns": ["Molecule", "Unit Of Measure", "IC50"],
 "data": [
  ["CCC(C)[C@H](NC(=O)[C@H](Cc1ccc(OP(=O)(O)O)cc1)NC(C)=O)C(=O)N[C@@H](CC(N)=O)C(=O)N[C@@H](CCC(N)=O)C(=O)N[C@@H](CO)C(=O)N[C@H](C(N)=O)C(C)C (some centres undefined) [Y(p)INQSV]", "µM", 30],
  ["CC(=O)N[C@@H](Cc1ccc(OP(=O)(O)O)cc1)C(=O)N[C@@H](CC(C)C)C(=O)N[C@@H](C)C(=O)N[C@@H](CCC(N)=O)C(=O)N[C@H](C(=O)N[C@H](C(N)=O)C(C)C)C(C)O (some centres undefined) (Ac-[pY]LAQ[Thr(3ξ)]V-NH2)", "µM", 4],
  ["CC(=O)N[C@@H](Cc1ccc(OP(=O)(O)O)cc1)C(=O)N[C@@H](CC(C)C)C(=O)N1CCC[C@H]1C(=O)N[C@@H](CCC(N)=O)C(=O)N[C@H](C(N)=O)C(C)O (some centres undefined) (Ac-[pY]LPQ[Thr(3ξ)]-NH2)", "µM", 0.6],
  ["CC(=O)N[C@@H](Cc1ccc(OP(=O)(O)O)cc1)C(=O)N[C@@H](CC(C)C)C(=O)N[C@@H](CCCCN)C(=O)N[C@H](C(=O)N[C@@H](CCCCN)C(=O)N[C@@H](Cc1ccccc1)C(N)=O)C(C)O (some centres undefined) (Ac-[pY]LK[Thr(3ξ)]KF-NH2)", "µM", 20]
]}
